Cited source: patent US20210130452A1

target: T1, human IL-17A (human, UniProt Q16552 24-155); experiment: SPR (Biacore) off-rate
T1 construct: secreted form made in Hek293 cells (GenBank U32659); also called hIL-17A; hIL17A
T1 sequence (Q16552 other isoform, or with tags, fused parts or gaps): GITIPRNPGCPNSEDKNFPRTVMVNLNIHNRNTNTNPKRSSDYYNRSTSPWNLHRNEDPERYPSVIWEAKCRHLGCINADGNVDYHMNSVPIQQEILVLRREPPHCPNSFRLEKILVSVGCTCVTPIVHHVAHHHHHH
Here, each record is paired with measured koff data.
Please state the figure in s⁻¹; there is no need to write the unit.

Known results for binders:
>  <binder>
IL17MS3052 (VHH, variant of IL17MS13B03; Kabat numbering) VHH: EVQLVESGGGSVQAGDSLRLSCAASGRASSINWFGWFRQTPGKEREFVAGIRWSDAYTEYANSVKGRFTISRDNAKNTVDLQMDSLKPEDTAVYYCVLDLSTVRYWGQGTQVTVSS

>  <u>
s⁻¹

>  <koff>
0.000289

$$$$
>  <binder>
IL17MS3046 (VHH, variant of IL17MS13B03; Kabat numbering) VHH: EVQLVESGGGSVQPGDSLRLSCAASGRANSINWFGWFRQTPGKEREFVAGIRWSDAYTEYAASVKGRFTISRDNSKNTVDLQMDSLRPEDTAVYYCVLDLSTVRYWGQGTLVTVSS

>  <u>
s⁻¹

>  <koff>
0.000281

$$$$

Shifting focus to the binder that follows.
Data request, read-out koff, for IL17MS3053 (VHH, variant of IL17MS13B03; Kabat numbering) VHH: EVQLVESGGGSVQAGDSLRLSCAASGRANTINWFGWFRQTPGKEREFVAGIRWSDAYTEYANSVKGRFTISRDNAKNTVDLQMDSLKPEDTAVYYCVLDLSTVRYWGQGTQVTVSS
0.000258
